# System: P12-Ichikawa
# assay procedure: cell viability relative to DMSO control; higher = less cytotoxic
# test settings: RPMI 5 mM glucose + 10% dialyzed FBS; 48 h; 5.12 µM
readout label: cell viability (%)
Quick reminder: number only, in %, skip the unit.

Solved entries:
For C[C@@H](Cc1cc2c(c(C(N)=O)c1)N(CCCO)CC2)NCCOc1ccccc1OCC(F)(F)F , what is its reported cell viability?
99.4

Reported cell viability for COC(=O)CCC1=C(C)C2=CC3=NC(=CC4=C(C)C(=C([NH]4)C=C\5N=C(C=C1[NH]2)\C(=C5C)CCC(O)=O)C=C)\C6=C\C=C(/[C@@H](C(=O)OC)[C@@]36C)C(=O)OC : what is it?
94.6

# input molecule: CC(C)[C@H]1C(=O)N[C@H](CO)Cc2c[nH]c3cccc(c23)N1C ; wanted: its cell viability
58

---
Recorded cell viability for Cc1ccc(C(=O)Nc2ccc([S+](=O)([O-])O)c3cc([S+](=O)([O-])O)cc([S+](=O)([O-])O)c23)cc1NC(=O)c1cccc(NC(=O)Nc2cccc(C(=O)Nc3cc(C(=O)Nc4ccc([S+](=O)([O-])O)c5cc([S+](=O)([O-])O)cc([S+](=O)([O-])O)c45)ccc3C)c2)c1 , please?
56.4

###

# Test system: SEM cells
# assay procedure: cell viability relative to DMSO control; higher = less cytotoxic
# test settings: HPLM + 10% dialyzed FBS; 48 h; 46.1 µM
Categorized via cell viability: low-valued: < 20%; mid-valued: ≥ 20% and < 90%; high-valued: ≥ 90%

Consider the following illustrative entries.
Class (by measured cell viability) for CN(C)CCc1c[nH]c2ccc(Cn3cncn3)cc12
low-valued

Band assignment needed for CN(C)C(=O)[C@H](O)[C@H](Cc1ccccc1)NC(=O)c1cc2cc(Cl)ccc2[nH]1 please.
low-valued

Class? Entry: CC1Cc2ccccc2N1NC(=O)c1ccc(Cl)c([S+](N)(=O)[O-])c1 (configuration not stated)
high-valued

Class? Entry: Cc1n[nH]c2ccc(-c3cncc(OC[C@@H](N)Cc4ccccc4)c3)cc12
low-valued

Each molecule maps to one class by cell viability. Which class for c1ccc2c(CN3CCNCC3)cccc2c1 ?
high-valued

State the class of the molecule shown: COC(=O)[C@H](Cc1ccccc1)NC(=O)[C@@H](N)CC(=O)O
high-valued

Assign a category based on measured cell viability for CN(CC(=O)N(Cc1ccc(C2CCCCC2)cc1)c1ccc(C(=O)O)c(O)c1)[S+](=O)([O-])c1c(F)c(F)c(F)c(F)c1F and give only the class name.
mid-valued

Place this molecule in its band: CC(C)[C@H](O)C(=O)N[C@@H](C)C(=O)N[C@@H]1C(=O)N(C)CCc2ccccc21
high-valued

New cases:
# classify by cell viability band: Cc1cccc(-c2[nH]c(C(C)(C)C)nc2-c2ccc3nccnc3c2)n1
low-valued

Category lookup for the molecule OC1CCC(CC1)N2\C=N/C3=C(C2=N)C(=C([N]3CC4=CC=CC=C4)C5=CC=CC=C5)C6=CC=CC=C6 (configuration not stated)
mid-valued

Determine which band this molecule sits in: COc1cc(N2CCN(C)CC2)ccc1Nc1nc(N)c(C(=O)c2c(Cl)cccc2Cl)s1
mid-valued

Class? Entry: Cc1nc(-c2ccc(-c3ccc(C(=O)N4CCc5cc6c(cc54)C4(CCN(C)CC4)CO6)cc3)c(C)c2)no1
high-valued

Into which category would you place O=C(O)c1cccnc1 ?
low-valued

###

Parameter: cell viability. Scope: all listed entries.
# Test system: NOMO1
# assay procedure: cell viability relative to DMSO control; higher = less cytotoxic
# test settings: HPLM + 10% dialyzed FBS; 48 h; 46.1 µM
Respond numerically; units are % and should not be typed.

Examples with their reported cell viability follow.
Field request: cell viability | item: CCOc1ccccc1N/N=C1/C(=O)N(c2nc(-c3ccccc3)cs2)N=C1C
32.1

Can you share its cell viability? I mean this compound: CCOC(=O)c1c(CSc2ccccc2)n(C)c2cc(Br)c(O)c(CN(C)C)c12
104

Okay, now this compound:
Entry under review: Cc1cc(/C=c2/sc3nc4ccccc4n3c2=O)c(C)n1-c1ccccc1 . Reported cell viability?
123

###

// cell viability lookup, one value per entry
# Tested on: SEM cells
# assay procedure: cell viability relative to DMSO control; higher = less cytotoxic
# test settings: RPMI 5 mM glucose + 10% dialyzed FBS; 48 h; 0.000781 µM
Quick reminder: number only, in %, skip the unit.

Please state recorded cell viability (tested on SEM cells) of COc1cc(N2CCN(C)CC2)ccc1Nc1nc(N)c(C(=O)c2c(Cl)cccc2Cl)s1
112

State its cell viability on SEM cells: COC1=CC=C(C=C1)C/2=C(OC3O[C@@H](C)[C@H](O)[C@@H](O)[C@H]3O)/C(=O)C4=C(O2)C(=C(OC5O[C@H](CO)[C@@H](O)[C@H](O)[C@H]5O)C=C4O)CC=C(C)C (stereo not given in full)
127

Identify the measured cell viability of CCCC[S+](=N)([O-])CCC(N)C(=O)O (stereo not given) for SEM cells.
120

Form: Entry = Nc1ncnc2nc(-c3ccc(N4CCOCC4)nc3)cc(-c3cccc(Br)c3)c12 | System = SEM cells | cell viability = ____
125

Missing value: cell viability, SEM cells, entry C[S+](=O)([O-])N1CCN(Cc2cc3nc(-c4cccc5[nH]ncc45)nc(N4CCOCC4)c3s2)CC1 . Fill in?
115

Further cases:
Field: cell viability (SEM cells). Entry: CCC(=O)NC[C@H](Cc1ccc(OCCc2nc(-c3ccccc3)oc2C)cc1)N/C(C)=C\C(=O)c1ccc(C(F)(F)F)cc1
60.2

Give recorded cell viability with SEM cells for the following molecule: C/C=C(\C)C(=O)N[C@@H](c1ccccc1)[C@@H](O)C(=O)O[C@H]1C[C@@]2(O)[C@@H](OC(=O)c3ccccc3)[C@@H]3[C@]4(OC(C)=O)CO[C@@H]4C[C@H](O)[C@@]3(C)C(=O)[C@H](OC(C)=O)C(=C1C)C2(C)C
32.4

Given the entry CC(C)(Sc1cc(C(C)(C)C)c(O)c(C(C)(C)C)c1)Sc1cc(C(C)(C)C)c(O)c(C(C)(C)C)c1 , what cell viability was observed with SEM cells?
79

Give cell viability (SEM cells) of the following molecule: CC(O)(C[S+](=O)([O-])c1ccc(F)cc1)C(=O)Nc1ccc(C#N)c(C(F)(F)F)c1 (stereo not given)
87.2

Find cell viability (SEM cells) for the entry OC(=O)CNC(=O)\C1=C(/O)C2=CC=CC=C2N(CC3=CC=CC=C3)C1=O
121

Form field - read-out: cell viability; system: SEM cells; submitted item: NC(=O)c1nnn(Cc2cc(Cl)c(C(=O)c3ccc(Cl)cc3)c(Cl)c2)c1N
88.6

What is its cell viability for SEM cells? Entry: COc1cc2c(cc1OC)CN(CCc1ccc(NC(=O)c3cccc4c(=O)c5cccc(OC)c5[nH]c34)cc1)CC2
108

Param readout = cell viability; param system = SEM cells; param query = O=C(NOCC1CC1)c1ccc(F)c(F)c1Nc1ccc(I)cc1Cl ; response: value
101

Reported cell viability for SEM cells, given CC[C@H](CO)Nc1nc(NCc2ccccc2)c2ncn(C(C)C)c2n1 ?
102

cell viability of CC(C)[C@]12O[C@H]1[C@@H]3O[C@@]34[C@@]5(C)CC\C6=C(COC6=O)/[C@@H]5C[C@@H]7O[C@]47[C@@H]2O on SEM cells?
107

###

# System: NOMO1
# assay procedure: cell viability relative to DMSO control; higher = less cytotoxic
# test settings: RPMI 5 mM glucose + 10% FBS; 48 h; 0.0632 µM
readout label: cell viability
# answer = value followed by unit

Some solved cases for reference:
Name the recorded cell viability for CN(C)c1ccc(-c2nc3c(N4CCN(CC(=O)Nc5nccs5)CC4)c(Cl)cnc3[nH]2)cc1 .
101%

Which cell viability value belongs to CCCCN1CCC(CNC(=O)c2c3n(c4ccccc24)CCCO3)CC1 ?
118%

Recorded cell viability for CN(C)C(=O)[C@H](O)[C@H](Cc1ccccc1)NC(=O)c1cc2cc(Cl)ccc2[nH]1 , please?
124%

Can you look up the measured cell viability of CN1CCC(CNc2ccc3ncc(-c4cccc(OC(F)(F)F)c4)n3n2)CC1 for me?
89.4%

Please give the measured cell viability for this molecule: Cn1cnc(N)c2ncnc1-2
131%

***
For Cc1n[nH]c2ccc(-c3cncc(OC[C@@H](N)Cc4ccccc4)c3)cc12 , what is its reported cell viability?
120%

Consider the molecule shown here: c1coc(CNc2ncnc3nc[nH]c23)c1 What is its recorded cell viability?
116%

Given the molecule CCn1c(C(=O)N(C2CC2)C2CC2)cc2c3c(ncn3C)c(Nc3cc(C)n(C)n3)nc21 , what is its reported cell viability?
117%

May I ask what cell viability has been recorded for COc1ccc(-n2c(C)c([N+](=O)[O-])c3ccc(O)cc32)cc1 ?
118%

State the recorded cell viability for this entry: O=C1c2ccccc2-c2n[nH]c3cccc1c23
102%

These measurements were taken from the supplement of paper PMC11451515.
